Test name: chemical genetic growth profiling, strain panel (AID 1159580);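 note: tested at 20 µM; growth read once vehicle control cultures reached saturation at 30 °C; 1 = growth at the plate median or of vehicle wells; lower values mean less growth of the strain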
Particulars: S. cerevisiae deletion strains, growth OD, locus YCL029C, strain bik1
The whole screen tested about 5,500 compounds, of which about 2,000 (36%) were called active. About 18% were inconclusive and are not listed. Cut-off read from the data, not from the text of the source: active = normalized growth mostly below about 0.91 (no sharp cut-off); inconclusive = no clear call, values can overlap the other calls; inactive = mostly above about 0.92. This is one part of the list.
Please reply with one of these outcomes: Y = active, N = inactive

Compound: CS(=O)(=O)c1ccc([C@@H](O)[C@@H](CO)NC(=O)C(Cl)Cl)cc1
Assigned class: N
//
Compound: CC1(C)CC2C1CC[C@]1(CBr)CCC3C(CC(=O)O)C(=O)O[C@@]32C1 (stereo partly specified)
Assigned class: N
//
Compound: CN(C)C1C(=O)C(C(N)=O)=C(O)C2(O)C(=O)C3=C(O)c4c(O)ccc(Cl)c4C(C)(O)C3CC12 (stereo unspecified)
Assigned class: N
//
Compound: CO[C@H]1CC(O[C@@H]2/C(C)=C/C[C@@H]3C[C@@H](C[C@]4(CC[C@H](C)[C@@H](C5CCCCC5)O4)O3)OC(=O)[C@@H]3C=C(C)/C(=N\O)[C@H]4OC/C(=C\C=C\[C@@H]2C)[C@]43O)O[C@@H](C)C1O (stereo partly specified)
Assigned class: N

Prompt: Status in this test for CCC(C)[C@H]1O[C@]2(C=C[C@@H]1C)C[C@@H]1C[C@@H](C/C=C(\C)[C@@H](OC3C[C@H](OC)C(O[C@H]4C[C@H](OC)[C@@H](O)[C@H](C)O4)[C@H](C)O3)[C@@H](C)/C=C/C=C3\CO[C@@H]4[C@H](O)C(C)=C[C@@H](C(=O)O1)[C@]34O)O2 (stereo partly specified) ?
Completion: Y

Prompt: Status in this test for CN(C)[C@@H]1C(=O)C(C(N)=O)=C(O)[C@@]2(O)C(=O)C3=C(O)c4c(O)ccc(Cl)c4[C@@](C)(O)[C@H]3C[C@@H]12 ?
Completion: N

* * *

Test name: chemical genetic growth profiling, strain panel (AID 1159580)
Particulars: S. cerevisiae deletion strains, growth OD, locus YNL197C, strain WHI3, active compounds read low
The whole screen tested about 5,500 compounds, of which about 2,000 (36%) were called active. Roughly 18% stayed inconclusive and do not appear here. Some of the results follow.
Measurement label: normalized growth

Molecule: O=C1c2ccccc2-c2n[nH]c3cccc1c23
normalized growth: 0.826 (active)
--
Molecule: O=C(O)C1=CCCNC1
normalized growth: 0.915 (inactive)
--
Molecule: CNCCCC1c2ccccc2C=Cc2ccccc21
normalized growth: 1.02 (inactive)

Prompt: Give a short answer stating reported normalized growth for Cc1cn[nH]c1 .
Completion: 0.996 (inactive)

Prompt: Give a short answer stating reported normalized growth for CS(=O)(=O)Nc1ccc([N+](=O)[O-])cc1Oc1ccccc1 .
Completion: 0.99 (inactive)

* * *

Listed here: items and their measured normalized growth.
Test name: chemical genetic growth profiling, strain panel (AID 1159580);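 note: tested at 20 µM; growth read once vehicle control cultures reached saturation at 30 °C; 1 = growth at the plate median or of vehicle wells; lower values mean less growth of the strain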
Particulars: S. cerevisiae deletion strains, growth OD, locus YBR229C, strain ROT2, active compounds read low
The whole screen tested about 5,500 compounds, of which about 2,000 (36%) were called active. Not shown: some 18% with an inconclusive outcome. This is one part of the list.
Please give only the number in your answer, with no unit.

Molecule: COc1c(C)c2c(c(C)c1Cl)Oc1c(Cl)c(OC)c(Cl)c(C)c1C(=O)O2
normalized growth: 1.01
--
Molecule: O=C1NC2CC2N1C(=O)OCc1ccccc1 (stereo not given)
normalized growth: 1
--
Molecule: CC(C)CCCC(C)C1CCC2C3CC[C@H]4C[C@@H](O)CC[C@]4(C)C3CC[C@]12C (stereo not given in full)
normalized growth: 1.01

Prompt: Give a short answer stating reported normalized growth for NC(=O)NC(=O)Cc1ccccc1 .
Completion: 0.995

Prompt: Give a short answer stating reported normalized growth for CCCCCCc1cc2c(C)cc(=O)oc2cc1O .
Completion: 0.895

Prompt: Give a short answer stating reported normalized growth for COc1c(Br)cc(/C(N)=N\OC(=O)c2c(-c3c(Cl)cccc3Cl)noc2C)cc1Br .
Completion: 1.01

Prompt: Give a short answer stating reported normalized growth for COc1ccc(C2Sc3ccccc3N(CCN(C)C)C(=O)C2OC(C)=O)cc1 (stereo not given) .
Completion: 1.01

Prompt: Give a short answer stating reported normalized growth for Cc1ccc2c(c1)C1(C)CCCC(C)(C(=O)O)C1CC2 (stereo not given) .
Completion: 0.972

Prompt: Give a short answer stating reported normalized growth for NCC(N)C(=O)c1ccccc1 (stereo not given) .
Completion: 1.01

Prompt: Give a short answer stating reported normalized growth for CN(C)CCCN1c2ccccc2CCc2ccc(Cl)cc21 .
Completion: 0.975

Prompt: Give a short answer stating reported normalized growth for CC[N+](C)(C)c1cccc(O)c1 .
Completion: 0.983

Prompt: Give a short answer stating reported normalized growth for CC(C)CCCC(C)C1CCC2C3=CC[C@H]4C[C@@H](O)CC[C@]4(C)C3CC[C@@]21C (stereo not given in full) .
Completion: 1.02

Prompt: Give a short answer stating reported normalized growth for C=C(C)C1(O)OC(=O)C=C1OC (stereo not given) .
Completion: 0.944

Prompt: Give a short answer stating reported normalized growth for CC(=O)O[C@@H]1C=C[C@@]2(C)C(C[C@@H](OC(C)=O)[C@@]3(C)C4=CC(=O)O[C@@H](c5ccoc5)[C@]4(C)CCC23)C1(C)C (stereo not given in full) .
Completion: 1.02

Prompt: Give a short answer stating reported normalized growth for CC(=O)Oc1c(Cl)c(C)c2c(c1Cl)OC(=O)c1c(C)c(Cl)c(OC(C)=O)c(Cl)c1O2 .
Completion: 1.02

Prompt: Give a short answer stating reported normalized growth for NCC(=O)c1ccccc1 .
Completion: 1.01

Prompt: Give a short answer stating reported normalized growth for CC(C)CCCC(C)C1CCC2C3C[C@@H](O)[C@@]4(O)C[C@@H](O)CC[C@]4(C)C3CC[C@]12C (stereo not given in full) .
Completion: 1.06

Prompt: Give a short answer stating reported normalized growth for COC(=O)c1c(OC)cc2c(c1C)Oc1c(Cl)c(O)c(Cl)c(C)c1C(=O)O2 .
Completion: 0.909

Prompt: Give a short answer stating reported normalized growth for COC(=O)c1c(OC)cc2c(c1C)Oc1c(Cl)c(OC(C)=O)c(Cl)c(C)c1C(=O)O2 .
Completion: 0.989

Prompt: Give a short answer stating reported normalized growth for O=S(=O)(Oc1ccc(OCc2ccccc2)cc1)c1cc(Cl)cc(Cl)c1 .
Completion: 1.01

Prompt: Give a short answer stating reported normalized growth for CC(C)CC(NC(=O)OCC1c2ccccc2-c2ccccc21)C(=O)O (stereo not given) .
Completion: 0.997

Prompt: Give a short answer stating reported normalized growth for CC(C)CCCC(C)[C@H]1CCC2C3CC=C4C[C@@H](O)CC[C@]4(C)C3CC[C@@]21C (stereo not given in full) .
Completion: 1.01

Prompt: Give a short answer stating reported normalized growth for CC(C)CCCC(C)C1CCC2C3CC(=O)[C@H]4C[C@@H](O)CC[C@]4(C)C3CC[C@]12C (stereo not given in full) .
Completion: 1.02

Prompt: Give a short answer stating reported normalized growth for CC(C)c1ccc2c(c1)CCC1[C@](C)(CN)CCC[C@]21C (stereo not given in full) .
Completion: 0.925

Prompt: Give a short answer stating reported normalized growth for CN(C)CCCN1c2ccccc2Sc2ccc(Cl)cc21 .
Completion: 1.01

* * *

Listed here: items and their measured normalized growth.
Test name: chemical genetic growth profiling, strain panel (AID 1159580);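 note: tested at 20 µM; growth read once vehicle control cultures reached saturation at 30 °C; 1 = growth at the plate median or of vehicle wells; lower values mean less growth of the strain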
Particulars: S. cerevisiae deletion strains, growth OD, locus YPR106W, strain ISR1, active compounds read low
Hit rate of the full screen: of about 5,500 compounds, about 2,000 (36%) were called active. Roughly 18% stayed inconclusive and do not appear here. This is one part of the list.
Please give only the number in your answer, with no unit.

Sample answers from the record:
Smiles notation: Cc1onc(-c2c(Cl)cccc2Cl)c1C(=O)O/N=C(/N)Cc1ccc(C(C)(C)C)cc1
normalized growth: 0.994
//
Smiles notation: O=S(=O)(Nc1ccccc1Oc1ccccc1)c1ccc(-c2ccno2)s1
normalized growth: 0.946

Next molecule, normalized growth to be filled in.
Prompt: Give a short answer stating reported normalized growth for Cc1onc(-c2c(F)cccc2Cl)c1/C(N)=N\OC(=O)c1ccc(C(C)(C)C)cc1 .
Completion: 0.988

* * *

Test name: chemical genetic growth profiling, strain panel (AID 1159580);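 note: tested at 20 µM; growth read once vehicle control cultures reached saturation at 30 °C; 1 = growth at the plate median or of vehicle wells; lower values mean less growth of the strain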
Particulars: S. cerevisiae deletion strains, growth OD, locus YDR101C, strain arx1, active compounds read low
Among all 5,500 compounds or so, about 2,000 (36%) were called active. Roughly 18% stayed inconclusive and do not appear here. Some of the results follow.
Measurement label: normalized growth
Please give only the number in your answer, with no unit.

Compound: CCC(C)C(=O)OC1[C@@H]2CC3=C4CC(=O)O[C@@H](c5ccoc5)[C@]4(C)CCC3[C@@](C)(C2=O)[C@@H](CC(=O)OC)C1(C)C (stereo not given in full)
normalized growth: 0.991

Next compound, normalized growth to be filled in.
Prompt: Give a short answer stating reported normalized growth for C/C1=C/CC(C)(C)/C=C/C/C(C)=C/CC1 .
Completion: 0.991
